assay_text: Cytotoxicity against African green monkey Vero cells assessed as reduction in cell viability after 72 hrs by MTT assay
Type: cell-based
experimental_conditions: chlorocebus sabaeus
recorded_metric: CC50 at 72 h (µM)
One number for each entry, in µM.

Lab note: each molecule below needs its CC50 at 72 h filled in.
1. COc1ccc([C@@H](CNC(=O)/C=C/c2ccccc2)OC(=O)CCc2ccccc2)cc1OC
2. O=C(/C=C/c1ccccc1)OC[C@H](OC(=O)/C=C/c1ccccc1)c1ccc2ccccc2c1
3. CCCC(=O)O[C@H](CNC(=O)/C=C/c1ccccc1)c1ccc(OC)c(OC)c1
4. COc1ccc([C@@H](CNC(=O)CCc2ccccc2)OC(=O)/C=C/c2ccccc2)cc1OC
5. COc1cc([C@@H]2c3cc4c(cc3[C@H](O)[C@H]3COC(=O)[C@H]23)OCO4)cc(OC)c1OC

Reply:
36.9
181
29.9
44.3
5.74

Task item: Find the recorded CC50 at 72 h belonging to `CCCC(=O)NC[C@@H](OC(=O)/C=C/c1ccccc1)c1ccc(OC)c(OC)c1` and report it.
Reply: 42.4

###

assay_text: Selectivity index, ratio of CC50 for African green monkey Vero cells to IC50 for chloroquine-sensitive Plasmodium falciparum 3D7
Format: toxicity
experimental_conditions: read-out: Ratio CC50/IC50
recorded_metric: selectivity ratio

INSERT INTO measurements (mol_smiles, recorded_metric, result) VALUES
  ('CCCC(=O)O[C@H](CNC(=O)/C=C/c1ccccc1)c1ccc(OC)c(OC)c1', 'selectivity ratio', '< 2.98'),
  ('COc1ccc([C@@H](CNC(=O)/C=C/c2ccccc2)OC(=O)CCc2ccccc2)cc1OC', 'selectivity ratio', '< 3.69'),
  ('CCCC(=O)NC[C@@H](OC(=O)/C=C/c1ccccc1)c1ccc(OC)c(OC)c1', 'selectivity ratio', '< 4.24');

Please report selectivity ratio for every entry that follows.
1. O=C(/C=C/c1ccccc1)OC[C@H](OC(=O)/C=C/c1ccccc1)c1ccc2ccccc2c1
2. O=C(/C=C/c1ccccc1)OC[C@@H](OC(=O)/C=C/c1ccccc1)c1ccc2ccccc2c1
3. COc1ccc([C@@H](CNC(=O)CCc2ccccc2)OC(=O)/C=C/c2ccccc2)cc1OC

Reply:
1: < 18.1; 2: 20; 3: < 4.43
